Experiment: RPL19A-GFP modulators, yeast TOR pathway, confirmation, cell-based, S. cerevisiae, flow cytometry, cherry picks, mother/daughter gates (AID 2270)
Conditions: S. cerevisiae RPL19A-GFP strain, 3 h, measured here: mother cell gate, at 10 µM, stronger effect = lower value, 100 = same GFP as DMSO wells
Reported endpoint: GFP response vs DMSO (%)

compound=CCOc1ccc(-c2noc(-c3ccncc3)n2)cc1OCC experimental_result=95.7
compound=Cc1ccc(C(=O)Oc2oc(-c3ccccc3)nc2C=Nc2ccc(N(C)C)cc2)cc1 experimental_result=98.8
compound=COc1ccc(OC)c(/C=C/C(=O)c2ccc(Cl)cc2)c1 experimental_result=92
compound=COC(=O)c1ccccc1NC(=O)c1nc(S(=O)(=O)Cc2ccccc2)ncc1Cl experimental_result=102
compound=CCOc1ccc(-c2nc(-c3ccc(OC)cc3)no2)cc1OCC experimental_result=101
compound=O=C(Nc1c(-c2ccccc2)nc2c(Br)cc(Br)cn12)c1ccco1 experimental_result=92.1
compound=O=c1[nH]n(Cc2ccccc2)c2ccccc12 experimental_result=97.8
compound=Cc1c(C)c2ccc(OCC(=O)NCCCn3ccnc3)cc2oc1=O experimental_result=98.5
compound=O=C1c2cccc3cccc(c23)C(=O)N1c1nccs1 experimental_result=104
compound=CCOC(=O)Cc1csc(NC(=O)c2sc3nc4cc(C)ccc4cc3c2N)n1 experimental_result=89.8
compound=COc1ccc(/C=C2/C(=O)ON=C2c2ccccc2)cc1OC experimental_result=99.2
compound="COc1cc(C2CC(c3cccnc3)=NN2c2ccc(F)cc2)cc(OC)c1OC (stereo unspecified)" experimental_result=95.2
compound="CCCc1nn(-c2ccccc2)c2c1C(c1cccs1)C(C#N)=C(N)O2 (stereo unspecified)" experimental_result=102
compound=Cc1ccc(Oc2nc(-c3ccccn3)nc3ccccc23)cc1 experimental_result=97.8
compound="CC(=O)SC(C[N+](=O)[O-])c1cn(C(C)=O)c2ccccc12 (stereo unspecified)" experimental_result=90.1
compound=CCN(CC)C(=O)Cn1c(C)c(/C=C/c2cc[n+](C)cc2)c2ccccc21 experimental_result=106
compound="CCCOc1ccc(N2C(=O)CC(SCCN)C2=O)cc1 (stereo unspecified)" experimental_result=94.6
compound=COc1cccc2c1Oc1ncccc1N(C(=O)CCC(=O)NCc1ccccc1)C2 experimental_result=101
compound=C=CCNC(=O)/C(C#N)=C/c1c(N(Cc2ccccc2)Cc2ccccc2)nc2ccccn2c1=O experimental_result=98.8
compound=Cc1ccc(-c2ccc(CCC(=O)O)o2)cc1 experimental_result=101
compound=Cc1cccc(CN2CCSc3sccc3C2=O)c1 experimental_result=96.5
compound=O=C1c2ccsc2SCCN1Cc1ccc(Cl)cc1Cl experimental_result=95.5
compound=O/C=c1\ccc2cccc3nc(C(F)(F)F)nc1c23 experimental_result=110
compound=O=C(COc1ccc(F)cc1Cl)Nc1nc(-c2ccccn2)cs1 experimental_result=97.1
compound=COc1ccc(-c2ccc(CCC(=O)O)o2)cc1 experimental_result=96.1
compound="CC(C)(C)c1cc(C(c2cccnc2)N2CCN(CCO)CC2)cc(C(C)(C)C)c1O (stereo unspecified)" experimental_result=91.3
compound=COc1cc(/C=C2\C(=O)ON=C2c2ccccc2)cc(Br)c1O experimental_result=88.3
compound=O=C(O)Cc1ccc2ccc3ccccc3c2c1 experimental_result=97.8
compound="Cc1ccc(N(C(=O)CNC(=O)c2ccco2)C(C(=O)NC2CCCC2)c2cccnc2)cc1C (stereo unspecified)" experimental_result=108
compound=O=C1C=C(c2ccc(Cl)cc2)C(=O)N1Nc1ccccc1 experimental_result=51.9
compound=O=c1[nH]c(-c2ccccn2)nc(C(F)(F)F)c1Br experimental_result=101
compound=COc1ccc(CN2CCSc3sccc3C2=O)cc1 experimental_result=93.9
compound=CCOC(=O)C(=CNNc1ccccc1)C(=O)OCC experimental_result=105
compound=Cc1cc(C)c(C(=O)COC(=O)c2ccc([N+](=O)[O-])o2)cc1C experimental_result=98.2
compound=COc1ccc(C(=O)c2nccc3ccccc23)cc1 experimental_result=91.3
compound=O=C(CCc1nc(-c2ccccc2)no1)Nc1cc(C(F)(F)F)ccc1Cl experimental_result=103
compound=O=C(c1ccccc1F)N1CCN(c2cccc(C(F)(F)F)c2)CC1 experimental_result=96.5
compound=CCN(c1ccccc1)S(=O)(=O)c1ccc(C(=O)Nc2nnc(COC)o2)cc1 experimental_result=102
compound=COc1ccc(/C(C)=N/NC(=O)c2ccc(N(C)C)cc2)cc1 experimental_result=103
compound=O=S(=O)(c1ccc(Cl)cc1)c1snnc1-c1ccccc1 experimental_result=96.6
compound=CCOc1cc(/C=C2\N=C(C)OC2=O)cc(Cl)c1OCC(=O)OC experimental_result=101
compound=CCN(CC)c1ccc(/C=C/c2cccc[n+]2C)c(OC)c1 experimental_result=105
compound=COc1cc(NC(=O)c2ccccc2)ccc1NC(=O)c1cc2ccccc2o1 experimental_result=97.8
compound="CCOC(=O)C(CC)Sc1ncnc2c1nnn2-c1ccc(F)cc1 (stereo unspecified)" experimental_result=95.8
compound=COC(=O)COc1ccc(S(=O)(=O)N2CCc3ccccc3C2)cc1 experimental_result=103
compound=CCOc1ccc(Nc2nc(N(C)c3ccccc3)nc(N)c2[N+](=O)[O-])cc1 experimental_result=91.7

Value source: PubChem BioAssay
